Biological target: ABHD6 (Mus musculus, UniProt Q8R2Y0)
Construct: Proteomes (mouse brain membrane fraction or cell lysates); from tissue; host or cells: mouse brain membrane fraction (or cell lysates, not specified)
Experiment: In vitro competitive activity-based protein profiling (gel-based, FP-Rh or HT-01 probe)
Type: biochemical
Conditions: 1 μM inhibitor; read-out: % Inhibition at 1 μM, C = ABHD6
value-kind: inhibition at 1 µM

These solved cases illustrate the format of a correct answer.
>  <compound>
O=C(N1CCN(Cc2c(N3CCCC3)cccc2C(F)(F)F)CC1)n1cc(Cl)cn1

>  <inhibition at 1 µM>
> 75%

$$$$
>  <compound>
Cc1ccc(N2CCN(C(=O)n3cc(C(F)(F)F)cn3)CC2)cc1

>  <inhibition at 1 µM>
> 75%

$$$$
>  <compound>
O=C(N1CCN(c2cccc(N3CCOCC3)c2)CC1)n1cc(C(F)(F)F)cn1

>  <inhibition at 1 µM>
> 75%

$$$$
>  <compound>
O=C(c1cnn(C(=O)N2CCN(Cc3cccnc3)CC2)c1)N1CCCCC1

>  <inhibition at 1 µM>
25 to 75%

$$$$
>  <compound>
O=C(N1CCCC1)n1cc(C(F)(F)F)cn1

>  <inhibition at 1 µM>
25 to 75%

$$$$
>  <compound>
O=C(N1CCN(Cc2ccc3ccccc3c2)CC1)n1cccn1

>  <inhibition at 1 µM>
> 75%

$$$$

# return inhibition at 1 µM for each item in the list
1. N#Cc1cnn(C(=O)N2CCCN(C(=O)c3ccccc3)CC2)c1
2. O=C(c1ccccc1)N1CCCN(C(=O)n2cc(C(F)(F)F)cn2)CC1

Outgoing:
["> 75%", "> 75%"]

###

Molecular target: ABHD6 (Mus musculus, UniProt Q8R2Y0)
Construct: Proteomes (mouse brain membrane fraction or cell lysates); from tissue; host or cells: mouse brain membrane fraction (or cell lysates, not specified)
Sequence (Q8R2Y0 1-336): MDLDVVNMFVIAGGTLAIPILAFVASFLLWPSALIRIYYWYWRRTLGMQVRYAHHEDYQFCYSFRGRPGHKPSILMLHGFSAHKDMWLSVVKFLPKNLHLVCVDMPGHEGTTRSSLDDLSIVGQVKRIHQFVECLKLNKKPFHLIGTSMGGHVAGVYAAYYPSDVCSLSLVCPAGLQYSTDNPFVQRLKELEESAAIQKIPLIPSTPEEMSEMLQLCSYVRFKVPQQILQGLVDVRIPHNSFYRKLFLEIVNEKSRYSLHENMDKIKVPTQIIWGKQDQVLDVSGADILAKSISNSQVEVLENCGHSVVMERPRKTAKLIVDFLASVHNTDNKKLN
Assay: In vitro competitive activity-based protein profiling (gel-based, FP-Rh or HT-01 probe)
Format: biochemical
Conditions: mouse brain membrane fraction or cell lysates, 30 min preincubation at 37° C.; read-out: Mouse (IC50 value, nM) ABHD6
Provide the reported IC50 of each item.

Examples with answers:
>  <compound>
O=C(N1CCN(C(c2ccc(Cl)cc2)c2ccc(Cl)cc2)CC1)n1cc(Cl)cn1

>  <tgt>
ABHD6 (Mus musculus, UniProt Q8R2Y0)

>  <IC50>
100 to 1000 nM

$$$$
>  <compound>
Cc1cc(-c2ccccc2)ccc1CN1CCN(C(=O)n2cc(C#N)cn2)CC1

>  <tgt>
ABHD6 (Mus musculus, UniProt Q8R2Y0)

>  <IC50>
< 100 nM

$$$$
>  <compound>
O=C(N1CCCN(Cc2ccccc2)CC1)n1cc(C(F)(F)F)cn1

>  <tgt>
ABHD6 (Mus musculus, UniProt Q8R2Y0)

>  <IC50>
> 1000 nM

$$$$
>  <compound>
N#Cc1cnn(C(=O)N2CCCN(C(=O)c3ccccc3)CC2)c1

>  <tgt>
ABHD6 (Mus musculus, UniProt Q8R2Y0)

>  <IC50>
> 1000 nM

$$$$

I would be grateful if you could provide IC50 for each of the following entries.
1. O=C(N1CCN(Cc2ccncc2)CC1)n1cc(-c2ccccc2)cn1
2. CCN(Cc1cccc(OC)c1)C(=O)n1cc(Cl)cn1

Outgoing:
["100 to 1000 nM", "> 1000 nM"]

Parameters: items (list). Returns: IC50 for each item.
1. O=C(c1cnn(C(=O)N2CCN(C(c3ccc(Cl)cc3)c3ccc(Cl)cc3)CC2)c1)N1CCCCC1
2. COc1ccccc1-c1ccc(-c2cnn(C(=O)N3CCCC3)c2)cc1
3. O=C(N1CCN(Cc2ccc(C(F)(F)F)cc2N2CCCC2)CC1)n1cc(F)cn1

Outgoing:
1: 100 to 1000 nM; 2: 100 to 1000 nM; 3: 100 to 1000 nM

###

Answer each item with its documented inhibition at 1 µM.
Target: FAAH (Mus musculus)
Construct: Proteomes (mouse brain membrane fraction or cell lysates); from tissue; host or cells: mouse brain membrane fraction (or cell lysates, not specified)
Sequence (O08914 whole entry): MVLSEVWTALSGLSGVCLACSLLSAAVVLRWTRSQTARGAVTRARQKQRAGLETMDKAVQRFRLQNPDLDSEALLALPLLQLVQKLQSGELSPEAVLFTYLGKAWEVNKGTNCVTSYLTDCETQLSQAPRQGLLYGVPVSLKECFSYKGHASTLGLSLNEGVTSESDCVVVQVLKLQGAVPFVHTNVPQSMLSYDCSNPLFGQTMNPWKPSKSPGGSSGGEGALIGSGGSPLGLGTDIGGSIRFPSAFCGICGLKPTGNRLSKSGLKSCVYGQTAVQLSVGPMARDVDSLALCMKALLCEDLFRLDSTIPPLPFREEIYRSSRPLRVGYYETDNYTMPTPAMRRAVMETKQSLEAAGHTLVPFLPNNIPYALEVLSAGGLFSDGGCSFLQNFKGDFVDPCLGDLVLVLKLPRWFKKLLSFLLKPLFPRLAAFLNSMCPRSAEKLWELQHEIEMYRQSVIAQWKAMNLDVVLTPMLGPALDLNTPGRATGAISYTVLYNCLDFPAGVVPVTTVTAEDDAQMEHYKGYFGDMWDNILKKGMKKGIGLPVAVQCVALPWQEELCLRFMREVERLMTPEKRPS
Experiment: In vitro competitive activity-based protein profiling (gel-based, FP-Rh or HT-01 probe)
Assay type: biochemical
Conditions: 1 μM inhibitor; read-out: % Inhibition at 1 μM, B = FAAH
Procedure: In Vitro Competitive Activity-Based Protein Profiling. Proteomes (mouse brain membrane fraction or cell lysates) (50 μL, 1.0 mg/mL total protein concentration) were preincubated with varying concentrations of inhibitors at 37° C. […] Following gel imaging, serine hydrolase activity was determined by measuring fluorescent intensity of gel bands corresponding to MAGL, ABHD6, FAAH, and PLA2G7 using ImageJ 1.43u software.

Here is how some molecules turned out for inhibition at 1 µM.
>  <compound>
Cc1cnn(C(=O)N(C)CCN(C)C(=O)OC(C)(C)C)c1

>  <inhibition at 1 µM>
< 25%

$$$$
>  <compound>
O=C(N1CCN(Cc2ccccc2)CC1)n1cc(C(F)(F)F)cn1

>  <inhibition at 1 µM>
> 75%

$$$$
>  <compound>
NC(=O)c1cnn(C(=O)N2CCN(Cc3ccc(Cl)cc3)CC2)c1

>  <inhibition at 1 µM>
> 75%

$$$$
>  <compound>
O=C(c1ccccc1)N1CCCN(C(=O)n2cc(Cl)cn2)CC1

>  <inhibition at 1 µM>
< 25%

$$$$

Incoming: # lookup: inhibition at 1 µM of `O=C(N1CCN(c2cccc(Cl)c2)CC1)n1cc(C(F)(F)F)cn1`
Outgoing: > 75%

###

Target: ABHD6 (Mus musculus, UniProt Q8R2Y0)
Construct: Proteomes (mouse brain membrane fraction or cell lysates); from tissue; host or cells: mouse brain membrane fraction (or cell lysates, not specified)
Experiment: In vitro competitive activity-based protein profiling (gel-based, FP-Rh or HT-01 probe)
Format: biochemical
Conditions: 1 μM inhibitor; read-out: % Inhibition at 1 μM, C = ABHD6
Can you tell me inhibition at 1 µM for the items I'm about to list?

Here's what some known entries look like.
>  <compound>
N#Cc1cnn(C(=O)N2CCN(C(=O)c3ccccc3)CC2)c1

>  <inhibition at 1 µM>
< 25%

$$$$
>  <compound>
CN(Cc1cccc(-c2ccncc2)c1)C(=O)n1cc(-c2ccccc2)cn1

>  <inhibition at 1 µM>
> 75%

$$$$
>  <compound>
O=C(N1CCN(Cc2ccc(C(F)(F)F)cc2N2CCCC2)CC1)n1cc(Cl)cn1

>  <inhibition at 1 µM>
> 75%

$$$$
>  <compound>
O=C(c1cnn(C(=O)N2CCN(Cc3ccccn3)CC2)c1)N1CCCCC1

>  <inhibition at 1 µM>
< 25%

$$$$

Attention now turns to another entry.
Incoming: Fill in the blank: the reported inhibition at 1 µM of `O=C(c1cnn(C(=O)N2CCN(Cc3ccncc3)CC2)c1)N1CCC1` is ____.
Outgoing: < 25%

###

Target: PLA2G7 (Mus musculus)
Construct: Proteomes (mouse brain membrane fraction or cell lysates); from tissue; host or cells: mouse brain membrane fraction (or cell lysates, not specified)
Sequence (Q60963 22-440): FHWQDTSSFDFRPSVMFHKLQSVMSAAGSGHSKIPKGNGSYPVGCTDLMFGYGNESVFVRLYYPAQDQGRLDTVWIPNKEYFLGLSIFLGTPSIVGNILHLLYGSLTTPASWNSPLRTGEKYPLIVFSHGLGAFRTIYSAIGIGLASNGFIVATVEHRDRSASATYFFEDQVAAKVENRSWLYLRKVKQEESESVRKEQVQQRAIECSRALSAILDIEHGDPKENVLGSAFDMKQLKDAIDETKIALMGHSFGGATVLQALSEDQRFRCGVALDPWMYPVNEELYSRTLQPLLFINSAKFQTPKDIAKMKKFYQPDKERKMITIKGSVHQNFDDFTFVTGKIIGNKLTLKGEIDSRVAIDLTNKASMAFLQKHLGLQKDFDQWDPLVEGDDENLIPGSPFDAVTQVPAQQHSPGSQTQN
Test: In vitro competitive activity-based protein profiling (gel-based, FP-Rh or HT-01 probe)
Type: biochemical
Settings: 1 μM inhibitor; read-out: % Inhibition at 1 μM, D = PLA2G7
Protocol: In Vitro Competitive Activity-Based Protein Profiling. Proteomes (mouse brain membrane fraction or cell lysates) (50 μL, 1.0 mg/mL total protein concentration) were preincubated with varying concentrations of inhibitors at 37° C. […] Following gel imaging, serine hydrolase activity was determined by measuring fluorescent intensity of gel bands corresponding to MAGL, ABHD6, FAAH, and PLA2G7 using ImageJ 1.43u software.
Exercise: state measured inhibition at 1 µM for each of the compounds provided.

>  <compound>
O=C(c1cnn(C(=O)N2CCN(Cc3cncnc3)CC2)c1)N1CCCCC1

>  <inhibition at 1 µM>
> 75%

$$$$
>  <compound>
N#Cc1cnn(C(=O)N2CCN(Cc3ccc4ccccc4c3)CC2)c1

>  <inhibition at 1 µM>
> 75%

$$$$
>  <compound>
N#Cc1cnn(C(=O)NCCCCCc2ccccc2)c1

>  <inhibition at 1 µM>
< 25%

$$$$

Batch: inhibition at 1 µM for all items listed.
1. O=C(c1cnn(C(=O)N2CCN(C(c3ccc(Cl)cc3)c3ccc(Cl)cc3)CC2)c1)N1CCOCC1
2. O=C(N1CCN(c2ccccc2)CC1)n1cc(C(F)(F)F)cn1

Outgoing:
["> 75%", "> 75%"]
